Tested on: Natalase (alpha amylase)
procedure.summary: Organic Catalyst/Enzyme Compatibility Test (alpha amylase activity assay), Natalase
Assay type: biochemical
experimental.conditions: (Ac/Ab)x100; peracetic acid 5.0 ppm; organic catalyst 0.5 ppm; 40° C.; sample at 7 min 45 s
With a cut-off of 100, any Enzyme Compatibility Value ECVnat strictly below it is called criterion met; any Enzyme Compatibility Value ECVnat meeting it or above is called criterion not met.

Sample answers from the record:
{"molecule": "O=S(=O)([O-])CCC[N+]1=Cc2ccccc2C(Cc2ccccc2)(Cc2ccccc2)C1 [Entry 4]", "class.name": "criterion not met"}
{"molecule": "CCCCC(CC)COCC(C[N+]1=Cc2ccccc2CC1)OS(=O)(=O)[O-] (centres unmarked) [Entry 2, reference compound]", "class.name": "criterion met"}

Attention now turns to another entry.
Q: Answer whether the molecule CC(C)(C)OCC(C[N+]1=Cc2ccccc2CC1)OS(=O)(=O)[O-] (centres unmarked) [Entry 1, reference compound] has Enzyme Compatibility Value ECVnat strictly less than 100
Result: criterion met
